- test summary: melting temperature; fluorescence melt of hairpins on a sequencing array, two-state fit, raised by 9.35 °C to match UV melts
- condition description: sodium 0.088 M
Labelling: Tm reported below 40 °C becomes 1; at or above becomes -1.

[
  {
    "sequence code": "GGAACCGAAAGGTGATCC ((((((....)))..)))",
    "group": -1
  },
  {
    "sequence code": "GTAGGGTCGAAAGACTAC (((..(((....))))))",
    "group": 1
  },
  {
    "sequence code": "CGCGGAACTGTCCGCG ((((((....))))))",
    "group": -1
  },
  {
    "sequence code": "GTCCCACGAAAGTGGAC (((.(((....))))))",
    "group": -1
  },
  {
    "sequence code": "CCTCAGAAATGAGG (((((....)))))",
    "group": -1
  },
  {
    "sequence code": "CGATCTCGGAAACGATCG (((..(((....))))))",
    "group": 1
  }
]

---

- test summary: melting temperature; fluorescence melt of hairpins on a sequencing array, two-state fit, raised by 9.35 °C to match UV melts
- condition description: sodium 0.088 M
Lab note: compare Tm against 40 °C. Equal or greater, write Criterion met. Smaller, write Criterion not met.

[
  {
    "sequence code": "GCCTGGGGAAACCTGGGC (((..((....))..)))",
    "group": "Criterion met"
  },
  {
    "sequence code": "GCGTTAGAACGC ((((....))))",
    "group": "Criterion met"
  },
  {
    "sequence code": "CGCGGACCTCTCCGCG ((((((....))))))",
    "group": "Criterion met"
  },
  {
    "sequence code": "GCAATACGAAAGTACTGC (((.(((....))).)))",
    "group": "Criterion met"
  },
  {
    "sequence code": "GCGGATGGAAACGTCCGC (((((.(....).)))))",
    "group": "Criterion met"
  },
  {
    "sequence code": "GCTTTGCGAAAGCTTAGC (((..((....))..)))",
    "group": "Criterion met"
  },
  {
    "sequence code": "GCGAGGCGAAAGCACCGC (((..((....))..)))",
    "group": "Criterion met"
  },
  {
    "sequence code": "GATCAAATAGTTGATC ((((((....))))))",
    "group": "Criterion not met"
  },
  {
    "sequence code": "GTTGTAGGAAACTACAAC (((((((....)))))))",
    "group": "Criterion met"
  },
  {
    "sequence code": "GTACAGACGAAAGTCTAC (((..(((....))))))",
    "group": "Criterion not met"
  },
  {
    "sequence code": "GTACGCGAAAGCGGCTAC ((((((....)))..)))",
    "group": "Criterion met"
  },
  {
    "sequence code": "GATCAGAAACCTGATC ((((((....))))))",
    "group": "Criterion met"
  }
]

---

Catalogue of folding enthalpy readings, one per entry.
- test summary: folding enthalpy; higher = less favourable; fluorescence melt of hairpins on a sequencing array, two-state fit
- condition description: sodium 0.088 M

[
  {
    "sequence code": "CGCGTACGGAAACGTGCG (((..(((....))))))",
    "folding enthalpy, kcal/mol": -23.7
  },
  {
    "sequence code": "CGCACGGAAACGTACGCG ((((((....)))..)))",
    "folding enthalpy, kcal/mol": -22.1
  },
  {
    "sequence code": "GATCCTTTGAGGATC ((((((...))))))",
    "folding enthalpy, kcal/mol": -33.6
  },
  {
    "sequence code": "GGCTACGGAAACACAGCC ((((..(....)..))))",
    "folding enthalpy, kcal/mol": -23.6
  },
  {
    "sequence code": "GCGGGCGAAAGCCTCGC ((((((....))).)))",
    "folding enthalpy, kcal/mol": -21.9
  },
  {
    "sequence code": "GGGAACCGAAAGGTCCCC (((.(((....))).)))",
    "folding enthalpy, kcal/mol": -25.4
  },
  {
    "sequence code": "GATCGACGTTCGATC ((((((...))))))",
    "folding enthalpy, kcal/mol": -40.8
  },
  {
    "sequence code": "GATCAGAGGTCTGATC ((((((....))))))",
    "folding enthalpy, kcal/mol": -30.6
  },
  {
    "sequence code": "GATCACCATGGTGATC ((((((....))))))",
    "folding enthalpy, kcal/mol": -43.6
  },
  {
    "sequence code": "GTAGCAGGAAACTGTTAC (((.(((....))).)))",
    "folding enthalpy, kcal/mol": -30.4
  },
  {
    "sequence code": "GTGCCAGGAAACCAGCAC ((((..(....)..))))",
    "folding enthalpy, kcal/mol": -28.8
  },
  {
    "sequence code": "GAAGTTGGAAACGATTTC (((.(.(....).).)))",
    "folding enthalpy, kcal/mol": -20.9
  },
  {
    "sequence code": "GATCAGCAATCTGATC ((((((....))))))",
    "folding enthalpy, kcal/mol": -32.5
  },
  {
    "sequence code": "GGTGAAGCGAAAGCTACC (((..(((....))))))",
    "folding enthalpy, kcal/mol": -17.1
  },
  {
    "sequence code": "GGTGGGGGAAACCTCACC ((((.((....)).))))",
    "folding enthalpy, kcal/mol": -39.5
  },
  {
    "sequence code": "GCGCACGAAAGTGTCGC ((((((....))).)))",
    "folding enthalpy, kcal/mol": -27.6
  },
  {
    "sequence code": "GATCTCTCAGGAGATC ((((((....))))))",
    "folding enthalpy, kcal/mol": -48
  },
  {
    "sequence code": "GCAATGCGAAAGCGGTGC (((..((....))..)))",
    "folding enthalpy, kcal/mol": -21.7
  },
  {
    "sequence code": "GCATTGCGAAAGCCGTGC (((..((....))..)))",
    "folding enthalpy, kcal/mol": -22
  },
  {
    "sequence code": "GCTGATCGAAAGATGAGC (((.(((....))).)))",
    "folding enthalpy, kcal/mol": -32.2
  },
  {
    "sequence code": "GCGTGAAGACGC ((((....))))",
    "folding enthalpy, kcal/mol": -23
  },
  {
    "sequence code": "GTCCGCGAAAGCGGGAC ((((((....))).)))",
    "folding enthalpy, kcal/mol": -12.4
  },
  {
    "sequence code": "GATCTAGGTTAGATC ((((((...))))))",
    "folding enthalpy, kcal/mol": -28.5
  },
  {
    "sequence code": "GGCCGCGAAAGCGACGCC ((((((....)))..)))",
    "folding enthalpy, kcal/mol": -16.9
  },
  {
    "sequence code": "GATCTACCGTTAGATC ((((((....))))))",
    "folding enthalpy, kcal/mol": -30.5
  },
  {
    "sequence code": "GCACGCGGAAACGCATGC (((.(((....))).)))",
    "folding enthalpy, kcal/mol": -40.4
  }
]

---

Catalogue of Tm readings, one per entry.
- test summary: melting temperature; fluorescence melt of hairpins on a sequencing array, two-state fit, raised by 9.35 °C to match UV melts
- condition description: sodium 0.088 M

[
  {
    "sequence code": "GAACTCGGAAACGAGTTC (((((((....)))))))",
    "unit descriptor": "°C",
    "Tm": 67
  },
  {
    "sequence code": "GCTTTGCGAAAGCAGCGC ((..(((....)))..))",
    "unit descriptor": "°C",
    "Tm": 48.6
  },
  {
    "sequence code": "GTTCACGAAAGTGGTAAC ((((((....)))..)))",
    "unit descriptor": "°C",
    "Tm": 25.6
  },
  {
    "sequence code": "GGCTTGGGAAACCAGGCC (((.(((....))).)))",
    "unit descriptor": "°C",
    "Tm": 56.1
  },
  {
    "sequence code": "GCGCTGCGAAAGCAACGC (((.(((....))).)))",
    "unit descriptor": "°C",
    "Tm": 61.5
  },
  {
    "sequence code": "GTGAGCGAAAGCTGTCAC ((((((....)))..)))",
    "unit descriptor": "°C",
    "Tm": 40.2
  },
  {
    "sequence code": "GCGCTCGGAAACGAACGC (((.(((....))).)))",
    "unit descriptor": "°C",
    "Tm": 55.7
  },
  {
    "sequence code": "GCTTACGAAAGTAGGAGC ((((((....)))..)))",
    "unit descriptor": "°C",
    "Tm": 35
  },
  {
    "sequence code": "GATCGGCAGCCGATC ((((((...))))))",
    "unit descriptor": "°C",
    "Tm": 55.2
  },
  {
    "sequence code": "GTCTCCGGAAACGGGGAC (((.(((....))).)))",
    "unit descriptor": "°C",
    "Tm": 57.7
  },
  {
    "sequence code": "GGCGCTGGAAACAACGCC ((((.((....)).))))",
    "unit descriptor": "°C",
    "Tm": 55.2
  },
  {
    "sequence code": "GTCCTGGGAAACCGGGAC ((((.((....)).))))",
    "unit descriptor": "°C",
    "Tm": 55.7
  }
]

Source: the array DNA melting data of Ke et al. (doi:10.1101/2024.01.08.574731)
